molecular target: bradykinin 1 receptor (B1R) of the rat (Rattus norvegicus, UniProt P97583); construct: expressed in transfected cells; experiment: FLIPR Ca2+ assay, B1R antagonism, rat; assay type: cell-based; details: CHO-K1, 10 μM test substance; CHO K1 cells with rat B1R gene (rB1R cells); Des-Arg9-bradykinin at EC80; % inhibition compared with the maximum achievable inhibition; read-out: B1R antagonism, rat [10 μM] % inhibition
reported_property: inhibition at 10 µM (%)

Would you please look over these solved cases?
molecule: COc1cc(C)c(S(=O)(=O)N2CCCC[C@H]2COCC(=O)N2CCC(OCCN3CCCC3)(c3cccc(Cl)c3)CC2)c(C)c1
reported_property: inhibition at 10 µM
val: 100
--
molecule: Cc1cccc(Cl)c1S(=O)(=O)N1c2ccccc2OCC1COCC(=O)N1CCC(OCCN2CCCC2)(c2cccc(F)c2)CC1 (stereo not shown)
reported_property: inhibition at 10 µM
val: 99
--
molecule: COc1cc(C)c(S(=O)(=O)N2CCCCC2COCC(=O)N2CCC(OCCCN3CCCCC3)(c3cccnc3)CC2)c(C)c1 (stereo not shown)
reported_property: inhibition at 10 µM
val: 102
--
molecule: O=C(COCC1COc2ccccc2N1S(=O)(=O)c1ccccc1C(F)(F)F)N1CCC(OCCN2CCCC2)(c2cccc(F)c2)CC1 (stereo not shown)
reported_property: inhibition at 10 µM
val: 101
--
molecule: COc1cc(C)c(S(=O)(=O)N(CCOCC(=O)N2CCC(OCCN3CCCC3)(c3ccc(F)cc3)CC2)C2CC2)c(C)c1
reported_property: inhibition at 10 µM
val: 97

I = CN1CCN(CCOC2(c3cccnc3)CCN(C(=O)CC(NS(=O)(=O)c3ccc4ccccc4c3)c3ccccc3)CC2)CC1 (stereo not shown)
II = CN1CCN(CCOC2(c3cccnc3)CCN(C(=O)CC3CCCCN3S(=O)(=O)c3cccc(C(F)(F)F)c3)CC2)CC1 (stereo not shown)
Asked: Which item exceeds the other in inhibition at 10 µM, I or II ? Give the label of your selection.
Given back: I

* * *

biological target: human bradykinin 1 receptor (B1R) (Homo sapiens, UniProt P46663); construct: expressed in transfected cells; assay: FLIPR Ca2+ assay, B1R antagonism, human; format: cell-based; conditions: 10 μM test substance; CHO K1 cells with human B1R gene (hB1R cells); Lys-Des-Arg9-bradykinin at EC80; % inhibition compared with the maximum achievable inhibition; read-out: B1R antagonism, human [10 μM] % inhibition
Sequence (P46663 whole entry): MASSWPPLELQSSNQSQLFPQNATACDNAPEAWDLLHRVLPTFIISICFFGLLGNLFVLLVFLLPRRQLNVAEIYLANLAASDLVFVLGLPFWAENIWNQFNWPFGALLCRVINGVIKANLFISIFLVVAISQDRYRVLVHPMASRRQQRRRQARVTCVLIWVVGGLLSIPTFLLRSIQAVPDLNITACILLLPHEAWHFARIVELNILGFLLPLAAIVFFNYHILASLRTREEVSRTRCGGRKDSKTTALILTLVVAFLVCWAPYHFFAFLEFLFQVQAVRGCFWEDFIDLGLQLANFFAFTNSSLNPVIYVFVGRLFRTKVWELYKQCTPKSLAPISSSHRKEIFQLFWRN
reported_property: inhibition at 10 µM (%)

These recorded examples may help you get a feel for the data.
compound: COc1cc(C)c(S(=O)(=O)N(C)CCOCC(=O)N2CCC(OCCN3CCN(C)CC3)(c3cccnc3)CC2)c(C)c1 [Example 29]
target_of_assay: human bradykinin 1 receptor (B1R) (Homo sapiens, UniProt P46663)
val: 99

compound: O=C(COCC1CCc2ccccc2N1S(=O)(=O)c1ccc(Cl)c(Cl)c1)N1CCC(OCCN2CCCC2)(c2cccnc2)CC1 (stereo not shown) [Example 24]
target_of_assay: human bradykinin 1 receptor (B1R) (Homo sapiens, UniProt P46663)
val: 69

a = Cc1cc(S(=O)(=O)N2CCCCC2CCC(=O)N2CCC(OCCCN3CCCC3)(c3cccnc3)CC2)c(C)cc1Cl (stereo not shown) [Example 43]
b = O=C(CC1CCCCN1S(=O)(=O)c1cccc(C(F)(F)F)c1)N1CCC(OCCCN2CCCCC2)(c2cccnc2)CC1 (stereo not shown) [Example 23]
Asked: From the items above, decide which of a and b has the lower inhibition at 10 µM reading. # reply format: chosen label
Given back: b
(b: 57%, a: 86%)

* * *

Target: bradykinin 1 receptor (B1R) of the rat (Rattus norvegicus)
Construct: expressed in transfected cells
Sequence (P97583 1-337): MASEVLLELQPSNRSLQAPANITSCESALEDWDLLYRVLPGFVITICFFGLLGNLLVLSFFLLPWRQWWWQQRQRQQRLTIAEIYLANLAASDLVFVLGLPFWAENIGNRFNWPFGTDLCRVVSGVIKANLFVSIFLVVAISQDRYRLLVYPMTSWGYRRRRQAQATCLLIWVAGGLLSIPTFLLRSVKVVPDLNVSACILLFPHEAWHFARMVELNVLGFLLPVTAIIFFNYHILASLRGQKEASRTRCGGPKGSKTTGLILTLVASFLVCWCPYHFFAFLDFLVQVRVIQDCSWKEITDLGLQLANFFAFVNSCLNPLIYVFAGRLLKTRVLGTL
Test: FLIPR Ca2+ assay, B1R antagonism, rat
Format: cell-based
Conditions: CHO-K1, 10 μM test substance; CHO K1 cells with rat B1R gene (rB1R cells); Des-Arg9-bradykinin at EC80; % inhibition compared with the maximum achievable inhibition; read-out: B1R antagonism, rat [10 μM] % inhibition
reported_property: inhibition at 10 µM (%)

compound: COc1cc(C)c(S(=O)(=O)N(CCOCC(=O)N2CCC(OCCN3CCCC3)(c3ccncc3)CC2)c2ccccc2)c(C)c1
unit_tag: %
inhibition at 10 µM: 102
//
compound: O=C(COCC1CCc2ccccc2N1S(=O)(=O)c1ccc(Cl)c(Cl)c1)N1CCC(OCCCN2CCCCC2)(c2cccnc2)CC1 (stereo not drawn)
unit_tag: %
inhibition at 10 µM: 94
//
compound: CN1CCN(CCOC2(c3cccnc3)CCN(C(=O)COCC3CCc4ccccc4N3S(=O)(=O)c3ccc(Cl)c(Cl)c3)CC2)CC1 (stereo not drawn)
unit_tag: %
inhibition at 10 µM: 98
